Test system: RARa homodimer (NR concentration 270 nM)
Assay: PBM binding z-score (relative to random genomic background probes); higher = stronger binding; sequences stand for … in GC…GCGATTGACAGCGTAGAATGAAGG
METRIC NAME: PBM binding z-score
// print number alone

CHAIN	PBM binding z-score
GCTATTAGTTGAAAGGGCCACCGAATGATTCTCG	0.309
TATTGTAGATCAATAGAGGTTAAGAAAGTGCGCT	1.1
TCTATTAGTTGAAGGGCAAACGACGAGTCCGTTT	1.02
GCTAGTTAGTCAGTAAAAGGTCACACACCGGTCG	2.21
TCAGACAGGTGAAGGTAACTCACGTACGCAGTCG	0.536
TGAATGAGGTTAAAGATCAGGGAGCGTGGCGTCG	-0.32
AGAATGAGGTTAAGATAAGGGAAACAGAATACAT	1.27
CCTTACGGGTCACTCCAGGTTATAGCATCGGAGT	0.27
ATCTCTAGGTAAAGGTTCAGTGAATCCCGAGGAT	0.514
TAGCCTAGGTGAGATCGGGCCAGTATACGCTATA	-1.23

With RARa homodimer (NR concentration 270 nM) as the test system, `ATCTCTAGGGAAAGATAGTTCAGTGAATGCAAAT` showed PBM binding z-score of 0.55

Entry `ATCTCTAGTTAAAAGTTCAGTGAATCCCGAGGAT` : PBM binding z-score on RARa homodimer (NR concentration 270 nM) = 1.8

Lab entry: RARa homodimer (NR concentration 270 nM) assay, sequence `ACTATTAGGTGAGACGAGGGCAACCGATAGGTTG` , PBM binding z-score = 0.564

Given the sequence `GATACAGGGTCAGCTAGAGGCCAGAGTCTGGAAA` and test system RARa homodimer (NR concentration 270 nM), the measured PBM binding z-score is 0.22

For `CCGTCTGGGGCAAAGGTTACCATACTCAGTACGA` on RARa homodimer (NR concentration 270 nM), measured PBM binding z-score was -0.0466

Fill in: RARa homodimer (NR concentration 270 nM) PBM binding z-score for `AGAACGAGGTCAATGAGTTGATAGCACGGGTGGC` = 0.929

Reading of PBM binding z-score for `AGTCAAAGTTCATCTAGGAAACGTAAGATATGCT` with RARa homodimer (NR concentration 270 nM): 1.09

Tested on RARa homodimer (NR concentration 270 nM), the item `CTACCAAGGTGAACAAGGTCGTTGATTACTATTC` showed PBM binding z-score equal to 0.346

With RARa homodimer (NR concentration 270 nM) as the test system, `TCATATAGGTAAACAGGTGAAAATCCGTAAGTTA` showed PBM binding z-score of 1.83

Field PBM binding z-score (RARa homodimer (NR concentration 270 nM)), entry `TAGCCTAGGTCATTAGGCCAGTATAGTACGCATC` : 0.0486

PBM binding z-score on RARa homodimer (NR concentration 270 nM) for `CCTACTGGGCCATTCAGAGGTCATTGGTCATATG` is 0.727

Summary line: `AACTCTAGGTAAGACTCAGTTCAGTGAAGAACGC` , RARa homodimer (NR concentration 270 nM), reported PBM binding z-score = 0.797

Kindly note: RARa homodimer (NR concentration 270 nM), `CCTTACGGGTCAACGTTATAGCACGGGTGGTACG` , PBM binding z-score value reported: 0.25

Summary line: `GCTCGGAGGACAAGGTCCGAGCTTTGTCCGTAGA` , RARa homodimer (NR concentration 270 nM), reported PBM binding z-score = -1.77

Value (PBM binding z-score, RARa homodimer (NR concentration 270 nM)) for record `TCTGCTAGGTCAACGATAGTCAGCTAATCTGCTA` = -0.872

Form field PBM binding z-score for item `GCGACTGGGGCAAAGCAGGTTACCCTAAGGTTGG` on RARa homodimer (NR concentration 270 nM): -1.43
